Tested on: OVCAR-3 ovarian
Experiment: NCI tumour cell line growth inhibition, 48 h; in the data active = GI50 below about 0.43 µM; inactive = the rest
The reply should be one of these categories: active, inactive

Consider the worked cases shown below.
>>> class_label("O=C(/C=C/c1ccccc1)Nc1ncc(Cc2ccccc2Cl)s1")
"active"
>>> class_label("CC(=O)OC1OC([C@H]2c3cccc(O)c3C(=O)c3c(O)cc(C)cc32)C(O)C(O)C1O (stereo not given in full)")
"active"
>>> class_label("Nc1n[nH]c2cccc(C#Cc3cccc(NC(=O)c4cccc(C(F)(F)F)c4)c3)c12")
"inactive"
>>> class_label("O=c1[nH]c2ccccc2cc1-c1nc2ccc(Cl)cc2[nH]1")
"inactive"
>>> class_label("Nc1ncc(-c2cnn(C3CCNCC3)c2)cc1-c1nc2cc(Cl)ccc2o1")
"inactive"

Now look at this entry.
Outcome logged for CCCOC(=O)N[C@H]1CCc2c(Cl)c(OC)c(OC)c(OC)c2-c2ccc(SC)c(=O)cc21 in this assay: active

---

System: NCI-H460 lung
Test: NCI tumour cell line growth inhibition, 48 h
Reported property: TGI (µM)
# number only, unit µM dropped from output

>>> measured("Cc1ccc2c(ccc(/C=C/c3ccc(O)c4ncccc34)[n+]2C)c1")
30.3

Now consider a different compound.
What measured TGI goes with Nc1ncnc2c1ncn2C1C=C(CO)C(O)C1O (stereo not given) ? 34.8

---

Tested on: NCI-H23 lung
Assay: NCI tumour cell line growth inhibition, 48 h
Reported property: TGI

# annotated cases, reported TGI shown
>>> measured("CCOC(=O)c1sc(=S)n(-c2ccc(Cl)cc2)c1-n1cc(-c2ccccc2)c(C#N)c1N")
"70.6 µM"
>>> measured("O=C1C(=O)c2ccccc2C(O)=C1C(C1=C(O)c2ccccc2C(=O)C1=O)c1ccc(Cl)cc1")
"27.8 µM"
>>> measured("O=C(CSc1nnc(-c2ccccn2)s1)N/N=C/c1ccccc1")
"> 100 µM"

What measured TGI goes with COc1ccc(Cn2c(=O)c(OC)c(C)c3cc4ccccc4cc32)cc1 ? 77.5 µM

What measured TGI goes with NC(N)=NS(=O)(=O)c1ccc(NNc2c3ccccc3nc3ccccc23)cc1 ? 36.4 µM

What measured TGI goes with NC(CCCC(N)P(=O)(O)O)P(=O)(O)O (stereo unspecified) ? > 100 µM

What measured TGI goes with CC1(C)N/C(=C\[N+](=O)[O-])C(C)(C)N1O ? > 10 µM

What measured TGI goes with Cc1c(-c2ccccc2)cc(O)c2nc3ccccc3n12 ? > 100 µM

What measured TGI goes with Cc1ccc(C(=O)O)c(/C=C2\Cc3ccc(C)cc3C2=O)c1 ? > 100 µM

What measured TGI goes with Cc1nc2ccc(Br)cc2c(=O)n1-c1nnc(C(C)(C)C)s1 ? > 10 µM

What measured TGI goes with Nn1c(C23CC4CC(CC(C4)C2)C3)n[nH]c1=S ? > 100 µM

---

Tested on: EKVX NSCLC
Assay: NCI tumour cell line growth inhibition, 48 h
Reported property: TGI

# annotated cases, reported TGI shown
>>> measured("O=C(NC(=O)c1c(F)cccc1F)Nc1cccc(Oc2ncc(Cl)cn2)c1")
"> 100 µM"
>>> measured("O=C1C=C(Nc2ccccc2C(=O)CC(=O)C(=O)Nc2cccc([N+](=O)[O-])c2)c2ccccc2C1=O")
"> 100 µM"
>>> measured("Cc1cn(C2CC(OC(=O)c3ccc(Cl)cc3)C(COC(=O)c3ccc(Cl)cc3)O2)c(=O)[nH]c1=O (stereo not given)")
"> 100 µM"
>>> measured("Cn1c(Cl)c(/C=C2/C(=O)Nc3ccccc32)c2ccccc21")
"7.52 µM"
>>> measured("COc1cc(Nc2ncccc2C(=O)Nc2nc3ccc(F)cc3s2)cc(OC)c1OC")
"> 100 µM"
>>> measured("N#Cc1c(-c2ccc(Cl)cc2)c2c(n(C3OC(CO)C(O)C(O)C3O)c1=S)CCCC2 (stereo not given)")
"> 100 µM"
>>> measured("Cc1ccc(C(=O)O)c(/C=C2\\Cc3ccc(C)cc3C2=O)c1")
"> 100 µM"
>>> measured("COc1ccc(C(C#N)NC23CC4CC(CC(C4)C2)C3)cc1 (stereo not given)")
"> 100 µM"

What measured TGI goes with C=C(CCOC)CCC1CCCCC(CN(C)C)C1=O (stereo not given) ? > 100 µM

What measured TGI goes with O=S(=O)(C1=CC(S(=O)(=O)c2ccccc2)CN(Cc2ccccc2)C1c1cccc2ccccc12)c1ccccc1 (stereo not given) ? > 69 µM

What measured TGI goes with CNC(=O)OCc1c(COC(=O)NC)c(-c2ccc(-c3ccccc3)cc2)n(C)c1C ? 11.1 µM

What measured TGI goes with O=C(NN1C(=O)C(Cl)C1c1ccc(Cl)cc1)c1c(Cl)c(Cl)c(Cl)c(Cl)c1-c1nc2ccccc2[nH]1 (stereo not given) ? 88.7 µM

What measured TGI goes with C=CCn1c(N)c(C#N)c(C#N)c1CCC ? > 100 µM

What measured TGI goes with O=C1OC(CCCN2CCCCC2)(c2ccccc2)CC12CCCC2 (stereo not given) ? > 100 µM

What measured TGI goes with Cc1cn(-c2cc(NC(=O)c3cccc(C#Cc4cccc5[nH]nc(N)c45)c3)cc(C(F)(F)F)c2)cn1 ? > 100 µM

What measured TGI goes with N#C[S-].[La+3].c1cnc2c(c1)ccc1cccnc12.c1cnc2c(c1)ccc1cccnc12.c1cnc2c(c1)ccc1cccnc12 ? 15.5 µM

What measured TGI goes with [N-]=[N+]=NCCCn1c2c(c3ccc([N+](=O)[O-])cc3c1=O)C(=O)c1ccccc1-2 ? > 100 µM

---

# GI50 per record follows
System: K-562 leukemia
Assay: NCI tumour cell line growth inhibition, 48 h

# annotated cases, reported GI50 shown
>>> measured("Cc1ccc(C2=C(c3ccc(C)cc3)C3(c4ccc(C)cc4)C4C(=O)OC(=O)C4C2(c2ccc(C)cc2)S3=O)cc1 (stereo unspecified)")
"27700 nM"
>>> measured("CN(c1ccc(NC(=O)Nc2c(Cl)cccc2Cl)cc1)c1ccnc(Nc2cccc(CS(C)(=O)=O)c2)n1")
"1540 nM"
>>> measured("CCCCCCCCn1ccc2cc(NC(=O)Cn3cc(CN4CCCCCC4)nn3)ccc21")
"1670 nM"
>>> measured("CCC[CH2][Sn]([CH2]CCC)([O]C(=O)CN)[O]C(=O)CN")
"18700 nM"
>>> measured("CCN(CC)CCNC(Cc1ccccc1)c1ccc(OCc2ccccc2)cc1 (stereo unspecified)")
"2370 nM"

What measured GI50 goes with CCCC(C)c1ccc(OCCCCCCN2CCNCC2)cc1 (stereo unspecified) ? 1510 nM

What measured GI50 goes with CS(=O)(=O)CCNCc1coc(-c2ccc3ncnc(Nc4ccc(OCc5ccccc5)cc4)c3c2)c1 ? 4540 nM

What measured GI50 goes with CN(C)C/C=C/C(=O)Nc1ccc(C(=O)N[C@@]2(C)CCC[C@@H](Nc3ncc(Cl)c(-c4c[nH]c5ccccc45)n3)C2)nc1 ? < 10 nM

---

Tested on: OVCAR-8 ovarian
Assay: NCI tumour cell line growth inhibition, 48 h
# TGI per record follows

>>> measured("CC1(c2cccc(C3CC4(CCC3=O)OCCCCO4)c2)OCCO1 (stereo unspecified)")
"> 100 µM"
>>> measured("COc1ccc(/C=C2\\N=C(N3CCCCC3)NC2=O)cc1")
"> 100 µM"
>>> measured("CC(=O)SCCC(NC(=S)Nc1ccccc1)P(=O)(Oc1ccccc1)Oc1ccccc1 (stereo unspecified)")
"> 100 µM"

What measured TGI goes with CS(=O)(=O)Nc1ccc2ccccc2c1-c1c(NS(C)(=O)=O)ccc2ccccc12 ? > 25 µM

What measured TGI goes with CNC(=O)OCc1nc(SSC(C)(C)C)n(C)c1COC(=O)NC ? 5.35 µM

What measured TGI goes with COC(=O)[C@@H]1C=C[C@H](OC2OC(COC(C)=O)C(OC(C)=O)C(OC(C)=O)C2OC(C)=O)n2c(=O)n(-c3ccccc3)c(=O)n21 (stereo partly specified) ? 8.03 µM

---

Tested on: BT-549 breast
Assay: NCI tumour cell line growth inhibition, 48 h; in the data active means GI50 below about 0.43 µM; inactive means the rest
The reply should be one of these categories: active, inactive

Consider the worked cases shown below.
>>> class_label("CCCCCCCCn1ccc2cc(NC(=O)Cn3cc(CN4CCCCCC4)nn3)ccc21")
"inactive"
>>> class_label("CCCC(C)c1ccc(OCCCCCCN2CCNCC2)cc1 (stereo unspecified)")
"inactive"
>>> class_label("CCN(CC)CCNC(Cc1ccccc1)c1ccc(OCc2ccccc2)cc1 (stereo unspecified)")
"inactive"

Outcome logged for COC(=O)c1ccc2[nH]c(O)c(C(=Nc3ccc(N(C)C(=O)CN4CCN(C)CC4)cc3)c3ccc4c(c3)OCO4)c2c1 in this assay: inactive

Outcome logged for Nc1ncc(-c2cnn(C3CCNCC3)c2)cc1-c1nc2cc(Cl)ccc2o1 in this assay: inactive

Outcome logged for Cc1ccc(C2=C(c3ccc(C)cc3)C3(c4ccc(C)cc4)C4C(=O)OC(=O)C4C2(c2ccc(C)cc2)S3=O)cc1 (stereo unspecified) in this assay: inactive

Outcome logged for CC/C=C\C[C@H]1CC=C2C(=O)C=C[C@@H]2CC=CCCCC(=O)O[C@@H](CCCCC)CC=C2C(=O)C=C[C@@H]2CC=CCCCC(=O)O[C@@H](CCCCC)CC=C2C(=O)C=C[C@@H]2CC=CCCCC(=O)O[C@@H](CCCCC)CC=C2C(=O)C=C[C@@H]2CC=CCCCC(=O)O1 in this assay: inactive

Outcome logged for [N-]=[N+]=NCCCn1c2c(c3ccc([N+](=O)[O-])cc3c1=O)C(=O)c1ccccc1-2 in this assay: inactive
